assay: qHTS assay to identify small molecule agonists of the retinoic acid receptor (RAR) signaling pathway (AID 1159553); settings: C3RL4 RARE luciferase reporter, agonist, 6 h
Records with an inconclusive call do not appear. Active and inactive are the calls of the source. The call rests on the fitted dose curve; in most records, active means well fitted activation curve with a large enough effect in the repeat runs; inconclusive means weak or mixed curves, or effect the other way; inactive means no such curve, though single readings can be large or run the other way.
EXPERIMENTAL ENDPOINT: outcome

Here are 4 compounds together with their reported answers.
[in] Output measured outcome for this item: CCCCCCCCCCCCOC(C)=O
[out] inactive

[in] Give outcome for the following compound: NS(=O)(=O)c1cc2c(cc1Cl)NC(C(Cl)Cl)NS2(=O)=O (stereo not given)
[out] inactive

[in] Give outcome for COC(/C=C(\C)CCC=C(C)C)OC
[out] inactive

[in] Give a short answer stating reported outcome for CCCCOC(=O)C(=O)OCCCC .
[out] inactive

Kindly consider the entry below.
[in] Tell us which outcome value is on record for O=C1CC[C@H](C(=O)N2CCCCC2)N1
[out] inactive

###

target: Cytochrome P450 2C19 (Homo sapiens) (UniProt P33261); assay: Cytochrome P450 Family 2 Subfamily C Member 19 (CYP2C19) small molecule antagonists: luciferase reporter qHTS assay (AID 1671197); conditions: P450-Glo CYP2C19 enzyme, luciferin luminescence, 1 h; series mostly up to 115 µM; further: nearly all actives have a fitted effect of over 65% in size
Sequence (P33261 whole entry, looked up): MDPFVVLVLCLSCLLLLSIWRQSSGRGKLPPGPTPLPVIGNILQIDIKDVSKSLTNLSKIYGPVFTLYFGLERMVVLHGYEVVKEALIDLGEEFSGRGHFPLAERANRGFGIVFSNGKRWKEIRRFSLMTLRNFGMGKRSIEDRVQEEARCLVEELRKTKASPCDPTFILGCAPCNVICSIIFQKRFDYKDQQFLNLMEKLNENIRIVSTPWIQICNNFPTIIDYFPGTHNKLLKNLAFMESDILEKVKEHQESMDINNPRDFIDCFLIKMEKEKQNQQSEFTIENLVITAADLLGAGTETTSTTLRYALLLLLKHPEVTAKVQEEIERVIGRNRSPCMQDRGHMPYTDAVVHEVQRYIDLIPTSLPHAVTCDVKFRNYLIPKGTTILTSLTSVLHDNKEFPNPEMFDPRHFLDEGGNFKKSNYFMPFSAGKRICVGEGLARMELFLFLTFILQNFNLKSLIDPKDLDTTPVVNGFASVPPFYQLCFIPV
Inconclusive results are not listed. The source made the active and inactive calls. Calls come from the whole dose curve; as a rule, active = well fitted inhibition curve with a large enough effect in the repeat runs; inconclusive = weak or mixed curves; inactive = no such curve, though single readings can be large or run the other way.
Outcomes you can answer with include only these: yes = active, no = inactive

Reference set (6 entries):
[in] Which result was noted for this molecule in the test: O=C(O)c1c(Cl)ccc(Cl)c1Cl
[out] no

[in] Query: recorded result category for O=P(O)(O)OCC(O)CO (stereo not drawn) in this test
[out] no

[in] Which outcome was entered for the molecule COc1cc(C=O)ccc1OC(=O)C(C)C in this test?
[out] yes

[in] # lookup: test call for O=C1OC(=O)c2cc(Oc3ccc4c(c3)C(=O)OC4=O)ccc21
[out] no

[in] What outcome does the record of this test show for CCOC(=O)C(=O)c1csc(NC=O)n1 ?
[out] no

[in] # fetch the recorded call for CC(C)C(=O)Nc1cccc(C(F)(F)F)c1 here
[out] no

---
[in] // return assay outcome for CCOC(=O)CC(CC(=O)OCC)(OC(C)=O)C(=O)OCC
[out] yes

[in] GET /call?item= CC(=O)OC[C@H]1O[C@@H](OC(C)=O)[C@H](OC(C)=O)[C@@H]1OC(C)=O returns the recorded outcome of this test.
[out] no

[in] For CCOC(=O)C(C)(C)C , what call appears in the results of this test?
[out] no

[in] Can you look up the reported call for O=S(=O)(O)SSS(=O)(=O)O for me?
[out] yes

[in] Hey, what did the test say about CC(C)(c1ccc(Oc2ccc3c(c2)C(=O)OC3=O)cc1)c1ccc(Oc2ccc3c(c2)C(=O)OC3=O)cc1 ?
[out] no

[in] Give the logged outcome of this assay for the following molecule: NC(=O)NNC(N)=O
[out] no

[in] Hi, do you know how O=C(O)c1ccccc1C(=O)OCc1ccccc1 came out in this test?
[out] no

[in] Which outcome did this test record for the molecule Nc1ccnc(=O)[nH]1 ?
[out] no

[in] Could you kindly confirm the outcome this assay logged for Cc1cccc(Nc2ccncc2S(=O)(=O)NC(=O)NC(C)C)c1 ?
[out] no

[in] Which outcome was assigned to CCCCC[Si](OCC)(OCC)OCC in this test?
[out] yes

[in] Any idea what this test logged for CC(C)(C)c1ccc(C=O)cc1 ?
[out] no

[in] Which outcome was entered for the molecule O=C(/C=C/c1ccccc1)NCCO in this test?
[out] yes

###

Assay: qHTS assay for small molecule agonists of the antioxidant response element (ARE) signaling pathway - cell viability counter screen (AID 743203); further: nearly all actives have a fitted effect of over 55% in size
Conditions: ARE-bla HepG2 viability, CellTiter-Glo luminescence, 16 h; series mostly up to 73.3 µM
Description: National Center for Advancing Translational Sciences [NCATS] NIH Chemical Genomics Center [NCGC] U.S. Environmental Protection Agency [EPA] National Institutes of Environmental Health Sciences [NIEHS] National Toxicology Program [NTP] U.S. Food and Drug Administration [FDA] Oxidative stress has been implicated in the pathogenesis of a variety of diseases ranging from cancer to neurodegeneration. […] The activation of the report gene under culture conditions can be detected by fluorescence intensity. […]
Inconclusive results are not listed. Activity calls are given as the source filed them. Calls come from the whole dose curve.
EXPERIMENTAL ENDPOINT: viability change, negative = cytotoxic

[in] Output viability change, negative = cytotoxic of CC(C)=CC(C)(C)C
[out] inactive

[in] Hello, please tell me recorded viability change, negative = cytotoxic for this one: COc1cc(C=O)ccc1OC(=O)C(C)C
[out] inactive

[in] Answer with the recorded viability change, negative = cytotoxic of CNC(=O)NC only.
[out] inactive

[in] Quote viability change, negative = cytotoxic reported for CC(C)CCO please.
[out] inactive

[in] Answer with the recorded viability change, negative = cytotoxic of CC(C)CCCCCCOC(=O)C1CCCCC1C(=O)OCCCCCCC(C)C (centres undefined) only.
[out] inactive

Now consider the entry below.
[in] Name the recorded viability change, negative = cytotoxic of the item CCCOCCOCCOCCO in your answer.
[out] inactive

###

Target: Aryl hydrocarbon receptor (Homo sapiens)
Test: qHTS assay to identify small molecule that activate the aryl hydrocarbon receptor (AhR) signaling pathway (AID 743085);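 further: HG2L7.5c1 human HepG2 liver cells with stably integrated DRE-driven firefly reporter; nearly all actives have a fitted effect of over 15% in size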
Settings: HepG2 AhR-luc (HG2L7.5c1), luciferase, 24 h; series mostly up to 70.3 µM
Description: U.S. Tox21 Program National Center for Advancing Translational Sciences [NCATS] NIH Chemical Genomics Center [NCGC] U.S. Environmental Protection Agency [EPA] National Institutes of Environmental Health Sciences [NIEHS] National Toxicology Program [NTP] U.S. Food and Drug Administration [FDA] Tox21 Assay overview: The Aryl hydrocarbon Receptor (AhR), a member of the family of basic helix-loop-helix transcription factors, is crucial to adaptive responses to environmental changes. […]
Records with an inconclusive call do not appear. The source made the active and inactive calls. Calls come from the whole dose curve; as a rule, active = well fitted activation curve with a large enough effect in the repeat runs; inconclusive = weak or mixed curves; inactive = no such curve, though single readings can be large or run the other way.
EXPERIMENTAL ENDPOINT: outcome

As a guide, the following entries are already answered.
[in] Please list outcome recorded for the molecule COCC(=O)Nc1c(I)c(C(=O)NCC(O)CO)c(I)c(C(=O)N(C)CC(O)CO)c1I (stereo not given)
[out] inactive

[in] Note outcome for the molecule shown: O=c1[nH]c(=O)c2[nH]c(=O)[nH]c2[nH]1
[out] inactive

[in] Consider the molecule O=S(=O)(O)SSS(=O)(=O)O and give its recorded outcome.
[out] inactive

[in] Fill in reported outcome for this entry: C[C@H](CCC(=O)NCC(=O)O)[C@H]1CC[C@H]2[C@@H]3[C@H](O)C[C@@H]4C[C@H](O)CC[C@]4(C)[C@H]3C[C@H](O)[C@]12C
[out] inactive

[in] Determine its reported outcome: CC(C)CCCC(C)CC=O (stereo not given)
[out] inactive

[in] Write down outcome measured for item CNC(=O)NC
[out] inactive

Continuing:
[in] // Input: CCCCCCCCCCCCCCCC(=O)NCCO . Output its outcome only.
[out] inactive

[in] Provide outcome value for the following molecule: CC(C)SCc1ccco1
[out] inactive

[in] Give the value of outcome reported for the following: Cc1ccc(S(=O)(=O)NC(=O)NC2CCCCCCC2)cc1
[out] inactive

[in] // Input: C=C[Si](C)(C)O[Si](C)(C)C=C . Output its outcome only.
[out] inactive

###

target: Cytochrome P450 2C9 (Homo sapiens); assay: Cytochrome P450 Family 2 Subfamily C Member 9 (CYP2C9) small molecule antagonists: luciferase reporter qHTS assay (AID 1671198); details: P450-Glo CYP2C9 enzyme assay, luciferin luminescence; series mostly up to 115 µM; further: nearly all actives have a fitted effect of over 50% in size
Inconclusive results are not listed. The source made the active and inactive calls. The call rests on the fitted dose curve; in most records, active means well fitted inhibition curve with a large enough effect in the repeat runs; inconclusive means weak or mixed curves; inactive means no such curve, though single readings can be large or run the other way.
EXPERIMENTAL ENDPOINT: Potency

[in] Please supply the value of reported Potency for the item CCC1COC(=O)O1 (stereo not given)
[out] inactive

[in] # return recorded Potency for entry O=S(=O)(O)CCO
[out] inactive

[in] Read the entry C=CCOc1cc(Cl)ccc1C(=O)NCCN(CC)CC and write its reported Potency.
[out] inactive

[in] Give Potency for the following compound: CCOC(=O)C(=O)c1csc(NC=O)n1
[out] inactive

[in] Answer with reported Potency of O=c1[nH]c(=O)c2ccccc2o1
[out] inactive

Continuing:
[in] Please list Potency recorded for the compound CN[C@@H]1[C@H](O)[C@H](NC)[C@H]2O[C@@]3(O)C(=O)C[C@@H](C)O[C@H]3O[C@@H]2[C@H]1O
[out] inactive

[in] Dear colleague, please send me the reported Potency for CC1(N)CCC(C(C)(C)N)CC1 (stereo not given) when you can.
[out] inactive

[in] Determine its reported Potency: CCCCCCCCCCCCCCCCCCN(C)C
[out] inactive

[in] Read the entry C[C@H](CCC(=O)O)[C@H]1CC[C@H]2[C@@H]3[C@H](O)C[C@@H]4C[C@H](O)CC[C@]4(C)[C@H]3C[C@H](O)[C@]12C and write its reported Potency.
[out] inactive

Data credit: PubChem BioAssay (Tox21)
